Attribution: ChEMBL document CHEMBL1201862

Please go through the items and note down their GI50.
Test system: 786-0
ASSAY_METHOD_TEXT: NCI tumour cell line growth inhibition, 48 h
The source made the active and inactive calls. No stated cut-off is given here; in the data, active = GI50 up to about 1.1 µM and inactive = higher.

In: Request the reported GI50 associated with CC(C)(C)OC(=O)N/C=C1\C(=O)Oc2ccccc2C1=O
Out: 34.6 µM (inactive)

In: What does the data say about its GI50? Entry: O=C1OC(c2ccccc2)=N/C1=C/NC(Cc1ccccc1)C(=O)O (centres undefined)
Out: > 100 µM (inactive)

In: Fill in: GI50 of CC[C@H]1OC([C@H](O)C/C=C\C#C[Si](C)(C)C)C/C=C\C[C@H]1O[Si](C)(C)C(C)(C)C (some centres undefined) is ___
Out: > 100 µM (inactive)

In: Which GI50 is reported for this compound? COC(=O)C1CC2CCC1(O[Si](C(C)C)(C(C)C)C(C)C)C(O)C2 (centres undefined)
Out: 16.9 µM (inactive)

In: Given the compound C=C[C@]1(O)CCC[C@]2(C)C(=O)CCC12C (some centres undefined) , what is its reported GI50?
Out: > 100 µM (inactive)

In: Fill in: GI50 of COc1cc(C)c(CC/C(C)=C/Cc2cc(O)ccc2O)c(C)c1C [PANICEIN A HYDROQUINONE] is ___
Out: > 25 µM (inactive)

In: # lookup: GI50 of Cc1c(Cl)cccc1N1C(=O)C(Cl)=C(Cl)C1=O
Out: 98.6 µM (inactive)

In: Query: GI50; subject: CCOc1ccccc1/N=C\c1c2ccccc2cc2ccccc12
Out: 18.8 µM (inactive)

In: For the compound shown here, CC1=CC(=O)CC2(C)CC[C@@H]3C[C@]12OC3(C)C (some centres undefined) , give the reported GI50.
Out: > 100 µM (inactive)
